Test system: PPARg homodimer (NR concentration 180 nM)
Experiment: PBM binding z-score (relative to random genomic background probes); higher = stronger binding; sequences stand for … in GC…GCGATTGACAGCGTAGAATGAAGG
Consider the following sequences; for each one, report its PBM binding z-score.
Returns: the value as a bare number; no unit string appended.

Measured PBM binding z-score for this entry CCTTACGGGTCACGAGGTTATATCACGACGAGCG on PPARg homodimer (NR concentration 180 nM): 2.85

PBM binding z-score on PPARg homodimer (NR concentration 180 nM) for GTACCAAGGTCAATAGGTCGTTGATGAGTAGGCG is 2.8

For the sequence ATATGTAGGTGACATCCGGGTCATTCAGGCTATG , the measured PBM binding z-score on PPARg homodimer (NR concentration 180 nM) was 3.11

So the reported PBM binding z-score for CCTACTGGTCCAAAAAGGTCATTGATGCCGATAA , on PPARg homodimer (NR concentration 180 nM), turned out to be 3.82

The value of PBM binding z-score recorded for CATCAAAGTTCAAGGTAACGTAACAGAAAGCAGC when tested on PPARg homodimer (NR concentration 180 nM) reads 2.92

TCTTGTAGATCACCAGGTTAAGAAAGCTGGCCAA on PPARg homodimer (NR concentration 180 nM) gives PBM binding z-score = 0.18

CAAACTAGGTAAAGGTCAAAGTCGGTTTGTGCCA tested on PPARg homodimer (NR concentration 180 nM) gave PBM binding z-score: 4.48

Form field, PBM binding z-score with PPARg homodimer (NR concentration 180 nM), item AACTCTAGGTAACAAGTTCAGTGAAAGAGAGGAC : 0.677

Record ATCTCTAGGTATAGTTCAGTGAAAGATCGATAGA ; system PPARg homodimer (NR concentration 180 nM); PBM binding z-score = 1.8
